Tested on: SNK-6 (IL-2 2.5 ng/mL);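 also: normalised to DMSO-only wells as negative and benzethonium chloride as positive control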
Experiment: percent inhibition of viability; higher = more inhibition
Conditions: 72 h; 1000 nM

{"compound": "O=C(O)CCCCC(CCSCc1ccccc1)SCc1ccccc1 (centres undefined) [CPI-613] (max concentration tested 10000 nM)", "target_entity": "SNK-6 (IL-2 2.5 ng/mL)", "percent inhibition of viability [%]": 3.27}
{"compound": "C[C@]1(c2nc3c(C(N)=O)cccc3[nH]2)CCCN1 [Veliparib] (max concentration tested 10000 nM)", "target_entity": "SNK-6 (IL-2 2.5 ng/mL)", "percent inhibition of viability [%]": -1.7}
{"compound": "CC(C)[C@H]1C(=O)N[C@@H](CCCNC(=N)N)C(=O)NCC(=O)N[C@@H](CC(=O)O)C(=O)N[C@H](Cc2ccccc2)C(=O)N1C [Cilengitide] (max concentration tested 10000 nM)", "target_entity": "SNK-6 (IL-2 2.5 ng/mL)", "percent inhibition of viability [%]": -5.25}
{"compound": "CNC(=O)c1cc(Oc2ccc(NC(=O)Nc3ccc(Cl)c(C(F)(F)F)c3)c(F)c2)ccn1 [Regorafenib] (max concentration tested 10000 nM)", "target_entity": "SNK-6 (IL-2 2.5 ng/mL)", "percent inhibition of viability [%]": 38.7}
{"compound": "CC(=O)O[C@H]1C(=O)[C@@]2(C)[C@H]([C@H](OC(=O)c3ccccc3)[C@]3(O)C[C@H](OC(=O)[C@H](O)[C@@H](NC(=O)c4ccccc4)c4ccccc4)C(C)=C1C3(C)C)[C@]1(OC(C)=O)CO[C@@H]1C[C@@H]2O [Paclitaxel] (max concentration tested 1000 nM)", "target_entity": "SNK-6 (IL-2 2.5 ng/mL)", "percent inhibition of viability [%]": 72.6}
{"compound": "CC[C@@H]1C(=O)N(C)c2cnc(Nc3ccc(C(=O)NC4CCN(C)CC4)cc3OC)nc2N1C1CCCC1 [BI 2536] (max concentration tested 1000 nM)", "target_entity": "SNK-6 (IL-2 2.5 ng/mL)", "percent inhibition of viability [%]": 48.1}
{"compound": "CC1(C)CNc2cc(NC(=O)c3cccnc3NCc3ccncc3)ccc21 [Motesanib] (max concentration tested 10000 nM)", "target_entity": "SNK-6 (IL-2 2.5 ng/mL)", "percent inhibition of viability [%]": -32.4}
{"compound": "CCCCc1nc2cc(/C=C/C(=O)NO)ccc2n1CCN(CC)CC [Pracinostat] (max concentration tested 10000 nM)", "target_entity": "SNK-6 (IL-2 2.5 ng/mL)", "percent inhibition of viability [%]": 96.5}
{"compound": "COc1cc2c(NC3CCN(C(C)C)CC3)nc(N3CCC(F)(F)CC3)nc2cc1OCCCN1CCCC1 [UNC0642] (max concentration tested 10000 nM)", "target_entity": "SNK-6 (IL-2 2.5 ng/mL)", "percent inhibition of viability [%]": 25.3}
{"compound": "COc1ccc(C2=N[C@@H](c3ccc(Cl)cc3)[C@@H](c3ccc(Cl)cc3)N2C(=O)N2CCNC(=O)C2)c(OC(C)C)c1 [Nutlin-3] (max concentration tested 10000 nM)", "target_entity": "SNK-6 (IL-2 2.5 ng/mL)", "percent inhibition of viability [%]": 42.5}
{"compound": "Nc1ccccc1NC(=O)c1ccc(CNC(=O)OCc2cccnc2)cc1 [Entinostat] (max concentration tested 10000 nM)", "target_entity": "SNK-6 (IL-2 2.5 ng/mL)", "percent inhibition of viability [%]": 65}
{"compound": "Cc1ccccc1C(C(=O)NC1CCCCC1)N(C(=O)Cn1ccnc1C)c1cccc(F)c1 (centres undefined) [AGI-5198] (max concentration tested 10000 nM)", "target_entity": "SNK-6 (IL-2 2.5 ng/mL)", "percent inhibition of viability [%]": 3.58}
{"compound": "Nc1nccc(-c2c(-c3ccc(F)cc3)ncn2C2CCCCC2)n1 (max concentration tested 10000 nM)", "target_entity": "SNK-6 (IL-2 2.5 ng/mL)", "percent inhibition of viability [%]": 7.8}
{"compound": "COC1=CC(c2cc3ccccc3[nH]2)=N/C1=C\\c1[nH]c(C)cc1C [Obatoclax] (max concentration tested 10000 nM)", "target_entity": "SNK-6 (IL-2 2.5 ng/mL)", "percent inhibition of viability [%]": 6.17}
{"compound": "COc1cc(C(=O)O)ccc1NC(=O)[C@@H]1N[C@@H](CC(C)(C)C)[C@](C#N)(c2ccc(Cl)cc2F)[C@H]1c1cccc(Cl)c1F [RG7388] (max concentration tested 10000 nM)", "target_entity": "SNK-6 (IL-2 2.5 ng/mL)", "percent inhibition of viability [%]": 81.8}
{"compound": "COc1cc(N2CCC(N3CCN(C)CC3)CC2)ccc1Nc1ncnc(Nc2ccccc2S(=O)(=O)C(C)C)n1 [ASP3026] (max concentration tested 10000 nM)", "target_entity": "SNK-6 (IL-2 2.5 ng/mL)", "percent inhibition of viability [%]": -35.9}
{"compound": "C=CCNC1=C2C[C@@H](C)C[C@H](OC)[C@H](O)[C@@H](C)/C=C(\\C)[C@H](OC(N)=O)[C@@H](OC)/C=C\\C=C(/C)C(=O)NC(=CC1=O)C2=O [Tanespimycin] (max concentration tested 10000 nM)", "target_entity": "SNK-6 (IL-2 2.5 ng/mL)", "percent inhibition of viability [%]": 87.7}
{"compound": "C[C@@]1(C(=O)Nc2ccc(F)nc2)CCCN1c1nc(Nc2cc(C3CC3)n[nH]2)c2cccn2n1 (max concentration tested 10000 nM)", "target_entity": "SNK-6 (IL-2 2.5 ng/mL)", "percent inhibition of viability [%]": 57.8}
{"compound": "CNC(=O)c1ccc(N2C(=S)N(c3cnc(C#N)c(C(F)(F)F)c3)C(=O)C23CCC3)cc1F [ARN 509] (max concentration tested 10000 nM)", "target_entity": "SNK-6 (IL-2 2.5 ng/mL)", "percent inhibition of viability [%]": 33.1}
{"compound": "Cc1sc2c(c1C)C(c1ccc(Cl)cc1)=N[C@@H](CC(=O)OC(C)(C)C)c1nnc(C)n1-2 [(+)JQ1] (max concentration tested 10000 nM)", "target_entity": "SNK-6 (IL-2 2.5 ng/mL)", "percent inhibition of viability [%]": 71.4}
{"compound": "COc1cc2nccc(Oc3ccc(NC(=O)Nc4cc(C)on4)c(Cl)c3)c2cc1OC [Tivozanib] (max concentration tested 10000 nM)", "target_entity": "SNK-6 (IL-2 2.5 ng/mL)", "percent inhibition of viability [%]": 41.8}
{"compound": "O=C(Cc1ccc(-c2ccc(OCCN3CCOCC3)cc2)cn1)NCc1ccccc1 [KX2-391] (max concentration tested 10000 nM)", "target_entity": "SNK-6 (IL-2 2.5 ng/mL)", "percent inhibition of viability [%]": 91.6}
{"compound": "Nc1nc(F)nc2c1ncn2[C@@H]1O[C@H](CO)[C@@H](O)[C@@H]1O [Fludarabine] (max concentration tested 10000 nM)", "target_entity": "SNK-6 (IL-2 2.5 ng/mL)", "percent inhibition of viability [%]": 32.5}
{"compound": "Cc1cc(C)c(/C=C2\\C(=O)Nc3ccccc32)[nH]1 [Semaxanib] (max concentration tested 10000 nM)", "target_entity": "SNK-6 (IL-2 2.5 ng/mL)", "percent inhibition of viability [%]": -25}
